# MEASUREMENT_NOTES: Inhibition of trypsin assessed as specific activity at 0.5 mM
# Parameters: scale not given: the % may be the effect or the level left
Peptide text beside a SMILES is read from it.
RESULT_TYPE: Activity

CC(C)C[C@H](NC(=O)CN)C(=O)N[C@@H](C)C(=O)N[C@H](C(=O)NCC(=O)N[C@@H](CC(N)=O)C(=O)N[C@H](C(=O)N[C@@H](CO)C(=O)N[C@H](C(=O)N[C@@H](C)C(=O)N[C@@H](CCC(=O)O)C(=O)N[C@@H](CC(C)C)C(=O)N[C@@H](CCC(N)=O)C(=O)N[C@@H](CC(=O)O)C(=O)N[C@@H](C)C(=O)N[C@H](C(=O)N1CCC[C@H]1C(=O)N[C@@H](C)C(=O)Nc1ccc([N+](=O)[O-])cc1)[C@H](C)O)[C@@H](C)O)C(C)C)[C@@H](C)O | < 1%

Here's the next entry for you.
[Q] # Activity lookup, item CC(C)[C@H](NC(=O)[C@@H]1CCCN1C(=O)[C@@H](NC(=O)[C@H](C)NC(=O)CNC(=O)[C@H](CO)NC(=O)CNC(=O)[C@H](CO)NC(=O)[C@H](CC(N)=O)NC(=O)[C@H](CCCCN)NC(=O)CNC(=O)[C@@H](N)CCCCN)[C@@H](C)O)C(=O)Nc1ccc([N+](=O)[O-])cc1 (HELM PEPTIDE1{K.G.K.N.S.G.S.G.A.T.P.V.[O=[N+]([O-])c1ccc(N[*:1])cc1]}$$$$V2.0)
[A] < 1%

###

# MEASUREMENT_NOTES: Inhibition of elastase assessed as specific activity at 0.5 mM
# Parameters: scale not given: the % may be the effect or the level left
Peptide text beside a SMILES is read from it.
RESULT_TYPE: Activity (%)
Output spec: scalar in %, unitless text.

[Q] Find the recorded Activity belonging to CSCC[C@H](NC(=O)[C@@H]1CCCN1C(=O)[C@@H](N)CC(=O)O)C(=O)N[C@@H](Cc1ccccc1)C(=O)N[C@@H](CCCCN)C(=O)N[C@@H](CC(C)C)C(=O)N[C@H](C(=O)Nc1ccc([N+](=O)[O-])cc1)C(C)C (HELM PEPTIDE1{D.P.M.F.K.L.V.[O=[N+]([O-])c1ccc(N[*:1])cc1]}$$$$V2.0) and report it.
[A] 4

[Q] Which Activity value is on record for `CSCC[C@H](NC(=O)[C@H](CCSC)NC(=O)[C@@H]1CCCN1C(=O)[C@H](CC(C)C)NC(=O)[C@@H](NC(=O)[C@H](CC(N)=O)NC(=O)[C@H](Cc1ccccc1)NC(=O)[C@@H](NC(=O)[C@@H]1CCCN1)C(C)C)[C@H](C)O)C(=O)NCC(=O)N[C@@H](CCCCN)C(=O)N[C@@H](C)C(=O)N[C@@H](CO)C(=O)N1CCC[C@H]1C(=O)N[C@H](C(=O)Nc1ccc([N+](=O)[O-])cc1)C(C)C` ?
[A] 69

[Q] Give the measured Activity of `CC(C)[C@H](NC(=O)[C@H](CCC(=O)O)NC(=O)[C@H](Cc1ccc(O)cc1)NC(=O)CNC(=O)[C@H](CO)NC(=O)[C@H](CC(=O)O)NC(=O)[C@H](Cc1cnc[nH]1)NC(=O)[C@H](CCCNC(=N)N)NC(=O)[C@H](Cc1ccccc1)NC(=O)[C@H](CCC(=O)O)NC(=O)[C@H](C)NC(=O)[C@H](CC(=O)O)NC(=O)[C@@H](N)CO)C(=O)Nc1ccc([N+](=O)[O-])cc1` .
[A] 8

###

# Tested on: Escherichia coli
# MEASUREMENT_NOTES: Inhibition of Escherichia coli degP assessed as specific activity at 0.5 mM
# Design: scale not given: the % may be the effect or the level left
Peptide text beside a SMILES is read from it.
Activity values by entry

CSCC[C@H](NC(=O)[C@@H]1CCCN1C(=O)[C@@H](N)CO)C(=O)N[C@@H](Cc1ccccc1)C(=O)N[C@@H](CCCCN)C(=O)NCC(=O)N[C@H](C(=O)Nc1ccc([N+](=O)[O-])cc1)C(C)C (HELM PEPTIDE1{S.P.M.F.K.G.V.[O=[N+]([O-])c1ccc(N[*:1])cc1]}$$$$V2.0) | 18%

Alright, here's another compound for you.
[Q] What does the record list as Activity for `CC(C)[C@H](NC(=O)[C@H](CCC(=O)O)NC(=O)[C@H](Cc1ccc(O)cc1)NC(=O)CNC(=O)[C@H](CO)NC(=O)[C@H](CC(=O)O)NC(=O)[C@H](Cc1cnc[nH]1)NC(=O)[C@H](CCCNC(=N)N)NC(=O)[C@H](Cc1ccccc1)NC(=O)[C@H](CCC(=O)O)NC(=O)[C@H](C)NC(=O)[C@H](CC(=O)O)NC(=O)[C@@H](N)CO)C(=O)Nc1ccc([N+](=O)[O-])cc1` ?
[A] < 1%

###

# MEASUREMENT_NOTES: Inhibition of subtilisin assessed as residual proteolytic activity at 0.5 mM
Peptide text beside a SMILES is read from it.
The reader will find reported Activity values listed item by item below.
Provide only the numeric value, understood in %.

CC(C)[C@H](NC(=O)[C@H](CCCNC(=N)N)NC(=O)CNC(=O)[C@@H](N)CO)C(=O)N[C@H](C(=O)N1CCC[C@H]1C(=O)NCC(=O)N[C@@H](Cc1ccc(O)cc1)C(=O)NCC(=O)N[C@@H](Cc1cnc[nH]1)C(=O)N[C@@H](C)C(=O)CCl)C(C)C (HELM PEPTIDE1{S.G.R.V.V.P.G.Y.G.H.A.[ClC[*:1]]}$$$$V2.0) | 15

[Q] Fill blank: measured Activity of the compound CSCC[C@H](NC(=O)[C@H](CCSC)NC(=O)[C@@H]1CCCN1C(=O)[C@H](CC(C)C)NC(=O)[C@@H](NC(=O)[C@H](CC(N)=O)NC(=O)[C@H](Cc1ccccc1)NC(=O)[C@@H](N)C(C)C)[C@@H](C)O)C(=O)NCC(=O)N[C@@H](CCCCN)C(=O)N[C@@H](C)C(=O)N[C@@H](CO)C(=O)N1CCC[C@H]1C(=O)N[C@H](C(=O)CCl)C(C)C (HELM PEPTIDE1{V.F.N.T.L.P.M.M.G.K.A.S.P.V.[ClC[*:1]]}$$$$V2.0) is ____.
[A] 155

[Q] Give its Activity value. Item: CSCC[C@H](NC(=O)[C@H](CCSC)NC(=O)[C@@H]1CCCN1)C(=O)NCC(=O)N[C@@H](CCCCN)C(=O)N[C@@H](C)C(=O)N[C@@H](CO)C(=O)N1CCC[C@H]1C(=O)N[C@H](C(=O)CCl)C(C)C (HELM PEPTIDE1{P.M.M.G.K.A.S.P.V.[ClC[*:1]]}$$$$V2.0)
[A] 5

###

# MEASUREMENT_NOTES: Inhibition of subtilisin assessed as specific activity at 0.5 mM
# Parameters: scale not given: the % may be the effect or the level left
Peptide text beside a SMILES is read from it.
RESULT_TYPE: Activity

Worked examples, 3 compounds total:
CSCC[C@H](NC(=O)[C@@H]1CCCN1C(=O)[C@@H](N)CO)C(=O)N[C@@H](Cc1ccccc1)C(=O)N[C@@H](CCCCN)C(=O)NCC(=O)N[C@H](C(=O)Nc1ccc([N+](=O)[O-])cc1)C(C)C (HELM PEPTIDE1{S.P.M.F.K.G.V.[O=[N+]([O-])c1ccc(N[*:1])cc1]}$$$$V2.0) | 3%
N=C(N)NCCC[C@H](NC(=O)c1ccccc1)C(=O)Nc1ccc([N+](=O)[O-])cc1 | < 1%
CSCC[C@H](NC(=O)[C@H](CCSC)NC(=O)[C@@H]1CCCN1C(=O)[C@H](CC(C)C)NC(=O)[C@@H](NC(=O)[C@H](CC(N)=O)NC(=O)[C@H](Cc1ccccc1)NC(=O)[C@@H](N)C(C)C)[C@@H](C)O)C(=O)NCC(=O)N[C@@H](CCCCN)C(=O)N[C@@H](C)C(=O)N[C@@H](CO)C(=O)N1CCC[C@H]1C(=O)N[C@H](C(=O)Nc1ccc([N+](=O)[O-])cc1)C(C)C (HELM PEPTIDE1{V.F.N.T.L.P.M.M.G.K.A.S.P.V.[O=[N+]([O-])c1ccc(N[*:1])cc1]}$$$$V2.0) | < 1%

Kindly consider the entry below.
[Q] I'd like to know its Activity. The compound in question is CC(C)[C@H](NC(=O)CNC(=O)CNC(=O)[C@H](CC(=O)O)NC(=O)[C@@H](NC(=O)[C@@H](N)CO)[C@@H](C)O)C(=O)Nc1ccc([N+](=O)[O-])cc1 (HELM PEPTIDE1{S.T.D.G.G.V.[O=[N+]([O-])c1ccc(N[*:1])cc1]}$$$$V2.0)
[A] < 1%

###

# MEASUREMENT_NOTES: Inhibition of trypsin assessed as specific activity at 0.5 mM
# Design: scale not given: the % may be the effect or the level left
Peptide text beside a SMILES is read from it.
RESULT_TYPE: Activity

Please review the following examples before continuing.
CSCC[C@H](NC(=O)[C@H](CCSC)NC(=O)[C@@H]1CCCN1C(=O)[C@H](CC(C)C)NC(=O)[C@@H](NC(=O)[C@H](CC(N)=O)NC(=O)[C@H](Cc1ccccc1)NC(=O)[C@@H](NC(=O)[C@@H]1CCCN1)C(C)C)[C@H](C)O)C(=O)NCC(=O)N[C@@H](CCCCN)C(=O)N[C@@H](C)C(=O)N[C@@H](CO)C(=O)N1CCC[C@H]1C(=O)N[C@H](C(=O)Nc1ccc([N+](=O)[O-])cc1)C(C)C | 1%
CSCC[C@H](NC(=O)[C@@H]1CCCN1C(=O)[C@@H](N)CO)C(=O)N[C@@H](Cc1ccccc1)C(=O)N[C@@H](CCCCN)C(=O)NCC(=O)N[C@H](C(=O)Nc1ccc([N+](=O)[O-])cc1)C(C)C (HELM PEPTIDE1{S.P.M.F.K.G.V.[O=[N+]([O-])c1ccc(N[*:1])cc1]}$$$$V2.0) | < 1%

Now for the compound whose Activity we want.
[Q] Any idea what its Activity is? The compound is `CC(C)[C@H](NC(=O)[C@H](CCC(=O)O)NC(=O)[C@H](Cc1ccc(O)cc1)NC(=O)CNC(=O)[C@H](CO)NC(=O)[C@H](CC(=O)O)NC(=O)[C@H](Cc1cnc[nH]1)NC(=O)[C@H](CCCNC(=N)N)NC(=O)[C@H](Cc1ccccc1)NC(=O)[C@H](CCC(=O)O)NC(=O)[C@H](C)NC(=O)[C@H](CC(=O)O)NC(=O)[C@@H](N)CO)C(=O)Nc1ccc([N+](=O)[O-])cc1`
[A] < 1%

The origin of these recorded values is ChEMBL document CHEMBL1153316.
